Numbers sourced from the supplement of paper PMC11061612.

System: HDLM-2 (Hodgkin's Lymphoma);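 further: after 72 h of two-drug dosing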
Measurement protocol: Bliss excess, mean over the matrix (fraction); higher = more synergy
Give measured Bliss excess for each item. Keep answers brief.
API note: the answer field is a bare number with no unit suffix.

Exercise: Given COc1nnc2ccc(N3CCC(c4ccc(OCCN5CCN(C)C(=O)[C@H]5C)cc4)CC3)nn12 [AZD5153] + C=CCn1c(=O)c2cnc(Nc3ccc(N4CCN(C)CC4)cc3)nc2n1-c1cccc(C(C)(C)O)n1 [AZD1775] (first compound max 1 µM, partner max 1 µM) , state its recorded Bliss excess.
Solution: -0.125

Exercise: Given COc1cccc2c1C(=O)c1c(O)c3c(c(O)c1C2=O)C[C@@](O)(C(=O)CO)C[C@@H]3O[C@H]1C[C@H](N)[C@H](O)[C@H](C)O1 [Doxorubicin] + Cc1cc2ncnn2cc1Nc1ncc2c(n1)n(C1CCOCC1)c(=O)n2C [AZD7648] (first compound max 1 µM, 7x7, partner max 10 µM) , state its recorded Bliss excess.
Solution: 0.0106

Exercise: Given CN(C)CCCOc1ccc(-c2ccc3ncc4c(c3c2)n(C2CCOCC2)c(=O)n4C)cn1 [AZD0156] + C[C@@H]1COCCN1C2=NC(=NC(=C2)C3(CC3)[S@](=N)(=O)C)C4=C5C=CNC5=NC=C4 [AZD6738] (first compound max 1 µM, 7x7, partner max 10 µM) , state its recorded Bliss excess.
Solution: -0.0448

Exercise: Given Cc1c2c(nn1C)CSCc1cc(n(C)n1)CSc1cc(c3ccccc3c1)OCCCc1c(C(=O)O)n(C)c3c-2c(Cl)ccc13 [AZD5991] + C1CN(CCC1(C(=O)N[C@@H](CCO)C2=CC=C(C=C2)Cl)N)C3=NC=NC4=C3C=CN4 [Capivasertib] (first compound max 1 µM, 7x7, partner max 3 µM) , state its recorded Bliss excess.
Solution: 0.0369

Exercise: Given Cn1cnc2c(F)c(Nc3ccc(Br)cc3Cl)c(C(=O)NOCCO)cc21 [Selumetinib] + CC(C)n1c(=O)n(C)c2cnc3cc(F)c(-c4ccc(OCCCN5CCCCC5)nc4)cc3c21 [AZD1390] (first compound max 10 µM, 7x7, partner max 0.3 µM) , state its recorded Bliss excess.
Solution: -0.0509

Exercise: Given COc1cccc(OCCCN)c1-c1cc(Nc2cnc(C#N)cn2)n[nH]1 [Prexasertib] + O=C(c1cc(Cc2n[nH]c(=O)c3ccccc23)ccc1F)N1CCN(C(=O)C2CC2)CC1 [Olaparib] (first compound max 1 µM, 7x7, partner max 10 µM) , state its recorded Bliss excess.
Solution: -0.046

Exercise: Given CN(C)CCCOc1ccc(-c2ccc3ncc4c(c3c2)n(C2CCOCC2)c(=O)n4C)cn1 [AZD0156] + CCN(CCO)CCCOc1ccc2c(Nc3cc(CC(=O)Nc4cccc(F)c4)[nH]n3)ncnc2c1 [AZD2811] (first compound max 1 µM, 7x7, partner max 1 µM) , state its recorded Bliss excess.
Solution: -0.0208

Exercise: Given COc1nnc2ccc(N3CCC(c4ccc(OCCN5CCN(C)C(=O)[C@H]5C)cc4)CC3)nn12 [AZD5153] + CCN(CCO)CCCOc1ccc2c(Nc3cc(CC(=O)Nc4cccc(F)c4)[nH]n3)ncnc2c1 [AZD2811] (first compound max 1 µM, 7x7, partner max 1 µM) , state its recorded Bliss excess.
Solution: 0.0003

Exercise: Given CC1(C)CCC(CN2CCN(c3ccc(C(=O)NS(=O)(=O)c4ccc(NCC5CCOCC5)c([N+](=O)[O-])c4)c(Oc4cnc5[nH]ccc5c4)c3)CC2)=C(c2ccc(Cl)cc2)C1 [Venetoclax] + CS(=O)(=O)CCNCc1ccc(-c2ccc3ncnc(Nc4ccc(OCc5cccc(F)c5)c(Cl)c4)c3c2)o1 [Lapatinib] (first compound max 1 µM, 7x7, partner max 10 µM) , state its recorded Bliss excess.
Solution: 0.0315
